experiment: Cytotoxicity Test II: human PBMC, trypan blue dyeing method; format: cell-based; conditions: human PBMC, trypan blue dyeing method; read-out: CC50 (Test II), 50% survival concentration
Where a SMILES comes first, the peptide text is derived from it. Bridges are numbered along the chain shown (N, C = ends). [ ]: non-standard residue; d: D form. 2Nal = N[C@@H](Cc1ccc2ccccc2c1)C(=O)O; Cit = NC(=O)NCCC[C@H](N)C(=O)O
Rule: CC50 below 300 µM gives fulfilled. Equal to or above 300 µM gives not fulfilled.

Use these answered entries as a reference point.
NCCCC[C@@H]1NC(=O)[C@H](CCCN=C(N)N)NC(=O)[C@H](Cc2ccc(O)cc2)NC(=O)[C@@H](NC(=O)[C@H](Cc2ccc3ccccc3c2)NC(=O)[C@H](CCCN=C(N)N)NC(=O)[C@@H](N)CCCN=C(N)N)CSSC[C@@H](C(=O)N[C@@H](CCCN=C(N)N)C(=O)O)NC(=O)[C@H](CCCNC(N)=O)NC(=O)[C@H](CCCNC(N)=O)NC(=O)[C@H](Cc2ccc(O)cc2)NC(=O)[C@@H]2CCCN2C(=O)[C@@H](CCCCN)NC1=O [TC14006] (H-RR[2Nal]CYRK[dK]PY[Cit][Cit]CR-OH; disulfide 4-13)
not fulfilled
NCCCC[C@H]1NC(=O)[C@H](CCCNC(N)=O)NC(=O)[C@H](CCCN=C(N)N)NC(=O)[C@H](Cc2ccc(O)cc2)NC(=O)[C@@H](NC(=O)[C@H](Cc2ccc3ccccc3c2)NC(=O)[C@H](CCCN=C(N)N)NC(=O)[C@@H](N)CCCN=C(N)N)CSSC[C@@H](C(=O)N[C@@H](CCCN=C(N)N)C(=O)O)NC(=O)[C@H](CCCNC(N)=O)NC(=O)[C@H](CCCN=C(N)N)NC(=O)[C@H](Cc2ccc(O)cc2)NC(=O)[C@@H]2CCCN2C1=O [TC14004] (H-RR[2Nal]CYR[Cit][dK]PYR[Cit]CR-OH; disulfide 4-13)
fulfilled

[in] Does the reported CC50 of NCCCC[C@@H]1NC(=O)[C@H](CCCNC(N)=O)NC(=O)[C@H](Cc2ccc(O)cc2)NC(=O)[C@@H](NC(=O)[C@H](Cc2ccc3ccccc3c2)NC(=O)[C@H](CCCN=C(N)N)NC(=O)[C@@H](N)CCCN=C(N)N)CSSC[C@@H](C(=O)N[C@@H](CCCN=C(N)N)C(=O)O)NC(=O)[C@H](CCCNC(N)=O)NC(=O)[C@H](CCCN=C(N)N)NC(=O)[C@H](Cc2ccc(O)cc2)NC(=O)[C@@H]2CCCN2C(=O)[C@@H](CCCCN)NC1=O [TC14003] (H-RR[2Nal]CY[Cit]K[dK]PYR[Cit]CR-OH; disulfide 4-13) stay below 300 µM?
[out] not fulfilled

[in] Does the reported CC50 of `NCCCC[C@@H]1NC(=O)[C@H](CCCN=C(N)N)NC(=O)[C@H](Cc2ccc(O)cc2)NC(=O)[C@@H](NC(=O)[C@H](Cc2ccc3ccccc3c2)NC(=O)[C@H](CCCN=C(N)N)NC(=O)[C@@H](N)CCCN=C(N)N)CSSC[C@@H](C(=O)N[C@@H](CCCN=C(N)N)C(=O)O)NC(=O)[C@H](CCCNC(N)=O)NC(=O)[C@H](CCCN=C(N)N)NC(=O)[C@H](Cc2ccc(O)cc2)NC(=O)[C@@H]2CCCN2C(=O)[C@@H](CCCNC(N)=O)NC1=O` stay below 300 µM?
[out] fulfilled

[in] Does the reported CC50 of NCCCC[C@@H]1NC(=O)[C@H](CCCN=C(N)N)NC(=O)[C@H](Cc2ccc(O)cc2)NC(=O)[C@@H](NC(=O)[C@H](Cc2ccc3ccccc3c2)NC(=O)[C@H](CCCN=C(N)N)NC(=O)[C@@H](N)CCCN=C(N)N)CSSC[C@@H](C(=O)N[C@@H](CCCN=C(N)N)C(=O)O)NC(=O)[C@H](CCCNC(N)=O)NC(=O)[C@H](CCCN=C(N)N)NC(=O)[C@H](Cc2ccc(O)cc2)NC(=O)[C@@H]2CCCN2C(=O)[C@@H](CCCCN)NC1=O [Compound T140, reference compound] (H-RR[2Nal]CYRK[dK]PYR[Cit]CR-OH; disulfide 4-13) stay below 300 µM?
[out] fulfilled

[in] Does the reported CC50 of NCCCC[C@@H]1NC(=O)[C@H](CCCN=C(N)N)NC(=O)[C@H](Cc2ccc(O)cc2)NC(=O)[C@@H](NC(=O)[C@H](Cc2c[nH]c3ccccc23)NC(=O)[C@H](CCCN=C(N)N)NC(=O)[C@@H](N)CCCN=C(N)N)CSSC[C@@H](C(=O)N[C@@H](CCCN=C(N)N)C(=O)O)NC(=O)[C@H](CCCNC(N)=O)NC(=O)[C@H](CCCN=C(N)N)NC(=O)[C@H](Cc2ccc(O)cc2)NC(=O)[C@@H]2CCCN2C(=O)[C@@H](CCCCN)NC1=O [Compound T134, reference compound] (H-RRWCYRK[dK]PYR[Cit]CR-OH; disulfide 4-13) stay below 300 µM?
[out] fulfilled

###

tested on: virus-uninfected MT-4 cells; assay: Cytotoxicity Test I: virus-uninfected MT-4 cells, MTT method; assay type: cell-based; details: selective index, MT-4 CC50 over anti-HIV EC50
Where a SMILES comes first, the peptide text is derived from it. Bridges are numbered along the chain shown (N, C = ends). [ ]: non-standard residue; d: D form. 2Nal = N[C@@H](Cc1ccc2ccccc2c1)C(=O)O; Cit = NC(=O)NCCC[C@H](N)C(=O)O
Quantity Measured: SI: CC50 (Test I)/EC50

[in] API: value(readout= SI: CC50 (Test I)/EC50, system= virus-uninfected MT-4 cells, query= C[C@@H]1NC(=O)[C@@H]2CCCN2C(=O)[C@@H](CCCCN)NC(=O)[C@H](CCCCN)NC(=O)[C@H](CCCN=C(N)N)NC(=O)[C@H](Cc2ccc(O)cc2)NC(=O)[C@@H](NC(=O)[C@H](Cc2ccc3ccccc3c2)NC(=O)[C@H](CCCN=C(N)N)NC(=O)[C@@H](N)CCCN=C(N)N)CSSC[C@@H](C(=O)N[C@@H](CCCN=C(N)N)C(=O)O)NC(=O)[C@H](CCCNC(N)=O)NC(=O)[C@H](CCCN=C(N)N)NC1=O [TA14009] (H-RR[2Nal]CYRK[dK]PAR[Cit]CR-OH; disulfide 4-13) )
[out] >4500

###

tested on: virus-uninfected MT-4 cells; assay: Cytotoxicity Test I: virus-uninfected MT-4 cells, MTT method; format: cell-based; conditions: selective index, MT-4 CC50 over anti-HIV EC50
Where a SMILES comes first, the peptide text is derived from it. Bridges are numbered along the chain shown (N, C = ends). [ ]: non-standard residue; d: D form. 2Nal = N[C@@H](Cc1ccc2ccccc2c1)C(=O)O; Cit = NC(=O)NCCC[C@H](N)C(=O)O
Quantity Measured: SI: CC50 (Test I)/EC50

C[C@@H]1NC(=O)[C@H](CCCN=C(N)N)NC(=O)[C@H](Cc2ccc(O)cc2)NC(=O)[C@@H](NC(=O)[C@H](Cc2ccc3ccccc3c2)NC(=O)[C@H](CCCN=C(N)N)NC(=O)[C@@H](N)CCCN=C(N)N)CSSC[C@@H](C(=O)N[C@@H](CCCN=C(N)N)C(=O)O)NC(=O)[C@H](CCCNC(N)=O)NC(=O)[C@H](CCCN=C(N)N)NC(=O)[C@H](Cc2ccc(O)cc2)NC(=O)[C@@H]2CCCN2C(=O)[C@@H](CCCCN)NC1=O [TA14006] (H-RR[2Nal]CYRA[dK]PYR[Cit]CR-OH; disulfide 4-13)
>1800

Proceed to the following item.
[in] API: value(readout= SI: CC50 (Test I)/EC50, system= virus-uninfected MT-4 cells, query= N=C(N)NCCC[C@H](NC(=O)[C@@H]1CSSC[C@H](NC(=O)[C@H](Cc2ccc3ccccc3c2)NC(=O)[C@H](CCCNC(=N)N)NC(=O)[C@@H](N)CCCNC(=N)N)C(=O)N[C@@H](Cc2ccc(O)cc2)C(=O)N[C@@H](CCCNC(N)=O)C(=O)N[C@@H](CCCCN)C(=O)N[C@H](CCCCN)C(=O)N2CCC[C@H]2C(=O)N[C@@H](Cc2ccc(O)cc2)C(=O)N[C@@H](CCCNC(=N)N)C(=O)N[C@@H](CCCNC(N)=O)C(=O)N1)C(N)=O [TN14003] (H-RR[2Nal]CY[Cit]K[dK]PYR[Cit]CR-NH2; disulfide 4-13 (inferred)) )
[out] >166000

###

system: virus-uninfected MT-4 cells; experiment: Cytotoxicity Test I: virus-uninfected MT-4 cells, MTT method; format: cell-based; details: selective index, MT-4 CC50 over anti-HIV EC50
Where a SMILES comes first, the peptide text is derived from it. Bridges are numbered along the chain shown (N, C = ends). [ ]: non-standard residue; d: D form. 2Nal = N[C@@H](Cc1ccc2ccccc2c1)C(=O)O; Cit = NC(=O)NCCC[C@H](N)C(=O)O
Quantity Measured: SI: CC50 (Test I)/EC50

Some solved entries appear below for comparison.
C[C@@H]1NC(=O)[C@H](Cc2ccc(O)cc2)NC(=O)[C@@H](NC(=O)[C@H](Cc2ccc3ccccc3c2)NC(=O)[C@H](CCCN=C(N)N)NC(=O)[C@@H](N)CCCN=C(N)N)CSSC[C@@H](C(=O)N[C@@H](CCCN=C(N)N)C(=O)O)NC(=O)[C@H](CCCNC(N)=O)NC(=O)[C@H](CCCN=C(N)N)NC(=O)[C@H](Cc2ccc(O)cc2)NC(=O)[C@@H]2CCCN2C(=O)[C@@H](CCCCN)NC(=O)[C@H](CCCCN)NC1=O [TA14005] (H-RR[2Nal]CYAK[dK]PYR[Cit]CR-OH; disulfide 4-13)
>4500
N=C(N)NCCC[C@H](NC(=O)[C@@H]1CSSC[C@H](NC(=O)[C@H](Cc2ccc3ccccc3c2)NC(=O)[C@H](CCCNC(=N)N)NC(=O)[C@@H](N)CCCNC(N)=O)C(=O)N[C@@H](Cc2ccc(O)cc2)C(=O)N[C@@H](CCCNC(=N)N)C(=O)N[C@@H](CCCCN)C(=O)N[C@H](CCCNC(N)=O)C(=O)N2CCC[C@H]2C(=O)N[C@@H](Cc2ccc(O)cc2)C(=O)N[C@@H](CCCNC(=N)N)C(=O)N[C@@H](CCCNC(N)=O)C(=O)N1)C(N)=O [TC14018]
>83000

Proceed to the following item.
[in] I'd like to know its SI: CC50 (Test I)/EC50. The compound in question is NCCCC[C@@H]1NC(=O)[C@H](CCCN=C(N)N)NC(=O)[C@H](Cc2ccc(O)cc2)NC(=O)[C@@H](NC(=O)[C@H](Cc2ccc3ccccc3c2)NC(=O)[C@H](CCCN=C(N)N)NC(=O)[C@@H](N)CCCN=C(N)N)CSSC[C@@H](C(=O)N[C@@H](CCCN=C(N)N)C(=O)O)NC(=O)[C@H](CCCNC(N)=O)NC(=O)[C@H](CCCN=C(N)N)NC(=O)[C@H](Cc2ccc(O)cc2)NC(=O)[C@@H]2CCCN2C(=O)[C@@H](CCCNC(N)=O)NC1=O [TC14005]
[out] >20000
